src = the supplement of paper PMC10567573

B1: DCAF4 (parent)
chain: PGIDRPGMLCSFRIPGAWSCAWSL

# Variants of: B1
# methodNotes: protein stability index of a GFP-peptide fusion (GPS, HEK-293T) (PSI 1-6); higher = more stable;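 further: lentivirally expressed fusions sorted by FACS into six bins by GFP to DsRed ratio, PSI derived from sequencing read proportions per bin multiplied by bin number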
# cond: c terminus: a fixed tail appended
The entries below are paired with their reported protein stability index.
Just the number, please, no unit attached.

Some solved entries appear below for comparison.
{"polymerSequence": "PGIDRPWMLCSFRIPGAWSCAWSL [G7W]", "protein stability index": 2.23}
{"polymerSequence": "PGIDRPGMLCSFRIPGAWSCAWSH [L24H]", "protein stability index": 2.96}
{"polymerSequence": "PGIFRPGMLCSFRIPGAWSCAWSL [D4F]", "protein stability index": 2.74}
{"polymerSequence": "PGADRPGMLCSFRIPGAWSCAWSL [I3A]", "protein stability index": 2.91}
{"polymerSequence": "PGIDRPGMLCSFRIPGAWKCAWSL [S19K]", "protein stability index": 4.35}
{"polymerSequence": "RGIDRPGMLCSFRIPGAWSCAWSL [P1R]", "protein stability index": 2.46}

Problem: Which protein stability index is reported for this variant? PGITRPGMLCSFRIPGAWSCAWSL [D4T]
Solution: 2.56

Problem: What would you report for PGIDNPGMLCSFRIPGAWSCAWSL [R5N] ?
Solution: 3.74

Problem: What would you report for PGIDRPGTLCSFRIPGAWSCAWSL [M8T] ?
Solution: 3.54

Problem: What would you report for PGIDRPGMLCSFRIPGPWSCAWSL [A17P] ?
Solution: 1.61

Problem: What would you report for PGIDRPDMLCSFRIPGAWSCAWSL [G7D] ?
Solution: 2.11
